Listed here: items and their measured IC50.
Biological target: cPLA2 crudely purified from the cytoplasm fraction of U937 (Homo sapiens, UniProt P47712)
Construct: cPLA2 crudely purified from the cytoplasm fraction of U937; endogenous in cells; host or cells: U937 cells (cytoplasm fraction, crude purification)
Sequence (P47712 whole entry): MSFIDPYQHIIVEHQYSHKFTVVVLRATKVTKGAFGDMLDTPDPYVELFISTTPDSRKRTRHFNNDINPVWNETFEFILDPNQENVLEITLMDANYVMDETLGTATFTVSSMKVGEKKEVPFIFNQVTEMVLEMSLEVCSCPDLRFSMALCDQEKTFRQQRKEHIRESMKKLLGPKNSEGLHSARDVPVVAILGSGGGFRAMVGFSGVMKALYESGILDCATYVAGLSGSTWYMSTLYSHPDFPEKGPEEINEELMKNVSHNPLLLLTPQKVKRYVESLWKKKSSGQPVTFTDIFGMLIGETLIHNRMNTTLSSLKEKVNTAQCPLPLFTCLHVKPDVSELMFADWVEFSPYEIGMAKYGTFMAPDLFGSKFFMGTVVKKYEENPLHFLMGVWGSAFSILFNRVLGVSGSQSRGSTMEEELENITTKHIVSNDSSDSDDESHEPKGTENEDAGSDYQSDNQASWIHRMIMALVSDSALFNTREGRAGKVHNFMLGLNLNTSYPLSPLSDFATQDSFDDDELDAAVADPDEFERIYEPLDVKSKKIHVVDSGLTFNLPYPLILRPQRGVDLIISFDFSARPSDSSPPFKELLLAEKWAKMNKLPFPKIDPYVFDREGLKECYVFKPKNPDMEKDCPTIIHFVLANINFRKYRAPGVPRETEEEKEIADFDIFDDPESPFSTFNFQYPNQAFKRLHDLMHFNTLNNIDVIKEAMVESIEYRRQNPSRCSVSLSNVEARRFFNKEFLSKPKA
Experiment: Measurement of cPLA2 inhibitory activity (release of [14C]-arachidonic acid from phosphatidyl choline liposome)
Assay type: biochemical
Response body: numeric value in nM, unit text excluded.

# count of solved cases: 3
| Substance Smiles | Target Entity | Meas Value |
| --- | --- | --- |
| O=C(O)/C=C/c1ccc2c(c1)c(C(=O)c1ccccc1)cn2-c1ccccc1 | cPLA2 crudely purified from the cytoplasm fraction of U937 (Homo sapiens, UniProt P47712) | 494 |
| O=C(O)/C=C/c1ccc2c(c1)c(C(=O)c1ccc3ccccc3c1)cn2-c1ccccc1 | cPLA2 crudely purified from the cytoplasm fraction of U937 (Homo sapiens, UniProt P47712) | 5520 |
| COc1ccc(CC(=O)c2cn(-c3ccccc3)c3ccc(CCC(=O)O)cc23)cc1 | cPLA2 crudely purified from the cytoplasm fraction of U937 (Homo sapiens, UniProt P47712) | 1910 |

Now look at this entry.
// sample "Cc1c(C(=O)Cc2ccccc2)c2cc(CCC(=O)O)ccc2n1-c1ccccc1" , its IC50 was 225

// data source = patent US8293781B2
